Data origin, for the record: ChEMBL document CHEMBL1201862

Overview of reported IC50 across a group of molecules:
# Target Or System: Beta-galactosidase (Escherichia coli, UniProt Q8VNN2)
# Sequence (Q8VNN2 whole entry): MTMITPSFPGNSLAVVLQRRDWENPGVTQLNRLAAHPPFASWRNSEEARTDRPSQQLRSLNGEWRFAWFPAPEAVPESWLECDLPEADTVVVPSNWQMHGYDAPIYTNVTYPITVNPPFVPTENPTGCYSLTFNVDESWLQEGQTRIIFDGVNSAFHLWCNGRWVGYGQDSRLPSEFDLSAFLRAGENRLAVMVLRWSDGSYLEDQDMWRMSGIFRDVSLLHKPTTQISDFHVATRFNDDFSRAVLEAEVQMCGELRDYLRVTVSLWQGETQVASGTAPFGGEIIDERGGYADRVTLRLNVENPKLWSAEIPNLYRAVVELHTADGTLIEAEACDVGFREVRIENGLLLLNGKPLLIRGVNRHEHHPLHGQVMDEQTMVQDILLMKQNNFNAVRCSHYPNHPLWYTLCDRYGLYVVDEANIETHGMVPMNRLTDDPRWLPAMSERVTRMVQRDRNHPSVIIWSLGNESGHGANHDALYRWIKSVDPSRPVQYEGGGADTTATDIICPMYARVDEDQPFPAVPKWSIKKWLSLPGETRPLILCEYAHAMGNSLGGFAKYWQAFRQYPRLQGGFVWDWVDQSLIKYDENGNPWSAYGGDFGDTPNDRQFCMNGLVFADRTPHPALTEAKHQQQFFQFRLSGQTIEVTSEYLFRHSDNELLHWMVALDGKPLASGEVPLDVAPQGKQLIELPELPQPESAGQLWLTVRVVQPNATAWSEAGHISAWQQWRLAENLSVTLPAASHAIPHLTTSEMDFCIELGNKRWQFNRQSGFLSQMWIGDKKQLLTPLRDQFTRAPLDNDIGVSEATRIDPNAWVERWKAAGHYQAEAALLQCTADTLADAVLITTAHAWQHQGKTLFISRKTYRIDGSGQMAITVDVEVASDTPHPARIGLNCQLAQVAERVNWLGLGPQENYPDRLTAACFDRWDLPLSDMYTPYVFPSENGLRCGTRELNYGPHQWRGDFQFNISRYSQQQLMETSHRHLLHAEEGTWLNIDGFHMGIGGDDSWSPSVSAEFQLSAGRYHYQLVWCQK
# Procedure Text: Dose response counterscreen for EBI2 assay utilizing the enzyme, b-galactosidase.
# Assay type: functional
Calls of active or inactive are those of the source. How the calls were made is not given here.
Value Kind: IC50

- Molecule: "CCOC(=O)N1CCN(C(=O)c2cc3cc(C)ccc3[nH]2)CC1"
  Value Kind: "IC50"
  Measured: "> 80 µM (inactive)"
- Molecule: "O=C(COc1ccc(Cl)cc1)N1CCN(Cc2ccc3c(c2)OCO3)CC1 [FIPEXIDE]"
  Value Kind: "IC50"
  Measured: "> 80 µM (inactive)"
- Molecule: "c1ccc(OCCNc2nc(NCC3CC3)nc3cc(-c4ccccc4)sc23)cc1"
  Value Kind: "IC50"
  Measured: "104 µM (inactive)"
- Molecule: "C/C(=N\\Nc1ncnc2sc(C)c(C)c12)c1ccccn1"
  Value Kind: "IC50"
  Measured: "> 80 µM (inactive)"
